Listed next: entries and their corresponding EMAX (% relative to control).
System Name: T1, native mouse MET on living mouse cells (mouse, UniProt P16056 25-1379)
T1 construct: whole, on cells; also called Mouse cells (MLP29)
Assay Overview: flow cytometry, MLP29 cells
Endpoint: EMAX (% relative to control) (%)

[[record]]
binder = "chimeric llama-human IgG1 mAb 71D6 (antibody, V domains shown) VH: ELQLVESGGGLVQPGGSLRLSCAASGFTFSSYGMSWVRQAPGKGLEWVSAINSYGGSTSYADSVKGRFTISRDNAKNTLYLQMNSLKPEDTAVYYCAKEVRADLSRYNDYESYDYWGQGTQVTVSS VL: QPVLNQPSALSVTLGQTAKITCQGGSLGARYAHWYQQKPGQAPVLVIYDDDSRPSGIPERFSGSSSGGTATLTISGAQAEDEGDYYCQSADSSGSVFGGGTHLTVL"
result_number = 121

[[record]]
binder = "chimeric llama-human IgG1 mAb 71D4 (antibody, V domains shown) VH: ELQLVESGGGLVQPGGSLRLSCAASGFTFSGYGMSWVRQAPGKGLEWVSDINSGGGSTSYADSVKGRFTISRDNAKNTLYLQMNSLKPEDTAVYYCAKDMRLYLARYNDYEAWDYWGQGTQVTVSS VL: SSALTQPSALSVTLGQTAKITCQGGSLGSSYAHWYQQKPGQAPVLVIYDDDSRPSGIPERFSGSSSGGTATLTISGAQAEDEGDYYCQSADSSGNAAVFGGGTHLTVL"
result_number = 94.8

[[record]]
binder = "chimeric llama-human IgG1 mAb 72F8 (antibody, V domains shown) VH: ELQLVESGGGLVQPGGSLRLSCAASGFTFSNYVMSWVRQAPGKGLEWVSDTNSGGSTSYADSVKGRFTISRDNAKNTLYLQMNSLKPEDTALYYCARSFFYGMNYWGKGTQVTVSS VL: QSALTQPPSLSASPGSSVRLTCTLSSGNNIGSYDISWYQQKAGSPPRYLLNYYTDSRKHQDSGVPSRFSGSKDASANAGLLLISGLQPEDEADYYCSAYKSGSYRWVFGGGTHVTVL"
result_number = 172

